- EXPERIMENT NOTES: Human HepG2 cell viability assay in 384 well format
- Type: toxicity, cell-based
- Design: dose 125 nL, time 70.5 hour; concentration not given beside the values
- TEST CONDITIONS: HepG2 cells, read-out: Inhibition
Listed compounds paired with reported cytotoxicity at 70.5 h
Reply numerically in %, unit not repeated.

Recorded cytotoxicity at 70.5 h, per entry:
COMPOUND	cytotoxicity at 70.5 h [%]
Cc1cc(C)c(CNC(=O)C2CCN(c3cnccn3)CC2)c(=O)[nH]1	-3.48
CN1CC[C@]2(CN(Cc3cccs3)C[C@H]2c2ccccc2)C1=O	-4.05
CC(=O)N1CCc2[nH]nc(C(=O)N3CCOCC3)c2C1	-4.57
Cc1cc(NC(=O)N(CC2CCOC2)C2CC2)no1 (configuration not stated)	-11.9
COCCN1CCN(CCCS(C)(=O)=O)CC1C (configuration not stated)	42.9

What the record says about Cc1ncccc1CNCC1COC2(CCCCC2)O1 (configuration not stated) : cytotoxicity at 70.5 h is 27.5

What the record says about Cc1ccc(CNC(=O)NC2CCC(O)CC2)c(N2CCCC2)c1 (configuration not stated) : cytotoxicity at 70.5 h is -10.5

----------
Listed compounds paired with reported cytotoxicity at 70.5 h
- EXPERIMENT NOTES: Human HepG2 cell viability assay in 384 well format
- Format: toxicity, cell-based
- Parameters: dose 125 nL, time 70.5 hour; concentration not given beside the values
- TEST CONDITIONS: HepG2 cells, read-out: Inhibition
Reply numerically in %, unit not repeated.

COMPOUND	UNIT TAG	OBSERVED
Cc1cccn2c(=O)cc(CN3CCCCC3Cn3cncn3)nc12 (stereo not given)	%	7.36
CSc1ccsc1C(=O)NS(=O)(=O)c1cnn(C)c1	%	-15.6
Cc1nn(C)c2c(=O)n(CC(=O)NCCN3CCCCCC3)ccc12	%	-4.19
Cc1ncc(S(C)(=O)=O)c(N2CCCN(Cc3ccccn3)CC2)n1	%	-5.13
CCOCc1nc(-c2ccc(F)cc2Cl)n(C2CCN(C)CC2)n1	%	-17.9
CCc1nnc(Nc2cc(C)nc(C3CCN(c4ccncn4)C3)n2)s1 (stereo not given)	%	12.4
CC(Nc1nc(-c2ccccc2)nc2c1CCNCC2)c1nccs1 (stereo not given)	%	2.31
COCCNC(=O)c1cc2c(nc1O)CC(c1cccs1)CC2=O (stereo not given)	%	-12.9
O=C(c1ccc(C2CCCO2)s1)N1CCS(=O)(=O)CC1 (stereo not given)	%	-8.51
O=C(O)c1cccnc1CN1CCCCC1CCc1ccccn1 (stereo not given)	%	-14.4

What the record says about `O=C(NCc1ccco1)[C@H]1CC[C@@H]2[C@@H](CCN2c2ncccn2)O1` : cytotoxicity at 70.5 h is 12.4

What the record says about `Cc1nn(CN(CC(C)C)C2CC2)c(=O)c2noc(C)c12` : cytotoxicity at 70.5 h is 14.5

What the record says about CC(NC(=O)NCC1(c2ccccc2)CCC1)c1nncn1C (stereo not given) : cytotoxicity at 70.5 h is -16.7

What the record says about CC(C)C1CN(C(=O)c2cc(C3CC3)n[nH]2)CCC(=O)N1CC1CC1 (stereo not given) : cytotoxicity at 70.5 h is -3.1

What the record says about CC(C)NC(=O)N1CCN(S(=O)(=O)C2CC2)CC2(CNC(=O)C2)C1 (stereo not given) : cytotoxicity at 70.5 h is 1.9

What the record says about CC(NS(=O)(=O)N(C)C)c1cccc(-n2cccn2)c1 (stereo not given) : cytotoxicity at 70.5 h is -3.97

What the record says about N#Cc1ccccc1CN1CCCCC1Cn1cncn1 (stereo not given) : cytotoxicity at 70.5 h is -20

What the record says about `Cc1c(F)cccc1S(=O)(=O)NC(C)(C)CN` : cytotoxicity at 70.5 h is -3.29

What the record says about CC(C)Oc1ncccc1CNC(=O)N1CCC1c1ccccc1 (stereo not given) : cytotoxicity at 70.5 h is 26.6

What the record says about `c1cc(-c2ccc3nc(C4CCN(CC5CC5)CC4)nn3c2)ccn1` : cytotoxicity at 70.5 h is 3.64

The reported measurements were obtained from ChEMBL document CHEMBL3507680.
